Value source: the supplement of paper PMC9694430

Test system: LOC_OS04G35114-cb001
ASSAY_EXPLANATION: thermal shift delta Tm vs DMSO control; higher = stronger stabilization (binding);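 also: purified Escherichia coli-expressed rice kinase domain construct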
TEST_PARAMETERS: 12.5 µM; protein concentration 2 µM
REPORTED_METRIC: thermal shift delta Tm (°C)
Numbers only, in °C.

# return thermal shift delta Tm for each item in the list
1. COc1cc(OC)cc(-c2cc3cnc(N)nc3nc2NC(=O)NC(C)(C)C)c1
2. CCN(C)S(=O)(=O)Nc1ccc(F)c(C(=O)c2c[nH]c3ncc(-c4cnc(C5CC5)nc4)cc23)c1F

Result:
1. 0
2. 2.53

====

Tested on: LOC_OS05G16824-cb004
ASSAY_EXPLANATION: thermal shift delta Tm vs DMSO control; higher = stronger stabilization (binding)
TEST_PARAMETERS: 12.5 µM; protein concentration 2 µM
REPORTED_METRIC: thermal shift delta Tm (°C)
Answers are plain numbers, in °C.

Observe how each entry below is paired with its result.
[[record]]
input_smiles = "CO[C@@H](C)Cn1c(=O)n(C)c2cnc3ccc(-c4cncc(C(C)(C)O)c4)cc3c21"
reported_metric = "thermal shift delta Tm"
reading_unit = "°C"
measured_number = -0.98

[[record]]
input_smiles = "COc1ncc(-c2cc(-c3ncc(CN4C[C@@H](C)O[C@@H](C)C4)o3)c3cn[nH]c3c2)cc1NS(C)(=O)=O"
reported_metric = "thermal shift delta Tm"
reading_unit = "°C"
measured_number = -0.4

[[record]]
input_smiles = "CCOc1cc2ncc(C#N)c(Nc3ccc(OCc4ccccn4)c(Cl)c3)c2cc1NC(=O)/C=C/CN(C)C"
reported_metric = "thermal shift delta Tm"
reading_unit = "°C"
measured_number = -0.55


Look at each compound and report its thermal shift delta Tm.
1. C=CC(=O)N1CCC[C@@H](n2nc(-c3ccc(Oc4ccccc4)cc3)c3c(N)ncnc32)C1
2. FC(F)c1nc2ccccc2n1-c1nc(N2CCOCC2)nc(N2CCOCC2)n1
3. CC(C)=CC[C@@H](O)C1=CC(=O)c2c(O)ccc(O)c2C1=O
4. O=C(Cc1ccc(-c2ccc(OCCN3CCOCC3)cc2)cn1)NCc1ccccc1
5. CC(C)(CCCCCC(O)CCCCCC(C)(C)C(=O)O)C(=O)O
6. NC1(Cc2ccc(Cl)cc2)CCN(c2ncnc3[nH]ccc23)CC1

Result:
1: 1.31; 2: 1.24; 3: -0.18; 4: -2.04; 5: 0.14; 6: 0.61

====

Test system: LOC_OS03G27990-cb004
ASSAY_EXPLANATION: thermal shift delta Tm vs DMSO control; higher = stronger stabilization (binding)
TEST_PARAMETERS: 12.5 µM; protein concentration 2 µM
Please go through the items and note down their thermal shift delta Tm.
Give bare numbers, in °C.

[[record]]
input_smiles = "O=C1NC(=O)/C(=C/c2ccc3nccc(-c4ccncc4)c3c2)S1"
reported_metric = "thermal shift delta Tm"
measured_number = 0.28

[[record]]
input_smiles = "Cn1c(=O)c(Oc2ccc(F)cc2F)cc2cnc(NC(CCO)CCO)nc21"
reported_metric = "thermal shift delta Tm"
measured_number = 0.49

[[record]]
input_smiles = "Cc1cc(Nc2cc(N)ncn2)c(=O)n2c1C(=O)NC21CCCCC1"
reported_metric = "thermal shift delta Tm"
measured_number = 0.19

[[record]]
input_smiles = "CC(C)c1cnn2c(NCc3ccccc3)cc(NCCCCCCN)nc12"
reported_metric = "thermal shift delta Tm"
measured_number = 0.14

[[record]]
input_smiles = "C=CC(=O)N1CC[C@@H](Oc2nc(Nc3ccc(N4CCC(N5CCN(C)CC5)CC4)cc3)c(C(N)=O)nc2CC)C1"
reported_metric = "thermal shift delta Tm"
measured_number = 5.37


Take each entry in turn and give its thermal shift delta Tm.
1. O=c1ncn2nc(Sc3ccc(F)cc3F)ccc2c1-c1c(Cl)cccc1Cl
2. FC(F)(F)c1ccc(/C=C/c2nc(COc3ccc(CCCCn4ccnn4)cc3)co2)cc1
3. Cc1n[nH]c2ncc(C(=O)N3CCC[C@H]3c3ccc(Cl)cc3)cc12

Result:
1: -0.01; 2: 0.51; 3: 0.35

Ask: // fetch thermal shift delta Tm given entry CCCCCCCCCCCCc1ccc(S(=O)(=O)Nc2nncs2)cc1
Result: 0.29
